assaySystem: Gal4-RORγ-LBD (Homo sapiens)
Construct: expressed in transfected cells
protocolDetails: Gal4-RORγ Luciferase Reporter Assay in HEK-293T Cells
Type: cell-based
testConditions: HEK-293 cells, luciferase reporter, with ursolic acid
pEC50: −log10 of the molar value.
measuredAttribute: pEC50

compound | measuredAttribute | result
COC(=O)CC[C@H]1CN(S(=O)(=O)c2cccc(C(F)(F)F)c2)c2cc(/C=C(\C)c3c(F)cccc3Cl)c(F)cc2O1 | pEC50 | > 6.30
C/C(=C\c1ccc2c(c1)N(S(=O)(=O)c1cccc(C(F)(F)F)c1)C[C@H]([C@@H](C)O)O2)c1c(F)cccc1Cl | pEC50 | > 6.30
O=C(O)CC[C@H]1CN(S(=O)(=O)c2cccc(C(F)(F)F)c2)c2cc(C=C3CCOCC3)ccc2O1 [Example 95N] | pEC50 | 5.30 to 6.30
COC(=O)CC[C@H]1CN(S(=O)(=O)c2cccc(C(F)(F)F)c2)c2cc(/C=C/c3c(OC)cccc3C(F)(F)F)ccc2O1 [Example 89ES] | pEC50 | 5.30 to 6.30
COC(=O)CC[C@H]1CN(S(=O)(=O)c2cc(C(F)(F)F)cnc2OCCO)c2cc(/C=C/c3c(Cl)cccc3C(F)F)ccc2O1 [Example 89EL] | pEC50 | > 6.30
CC1CCC(=Cc2ccc3c(c2)N(S(=O)(=O)c2cccc(C(F)(F)F)c2)C[C@H](CCC(=O)O)O3)CC1 (stereo partly shown) [Example 95K] | pEC50 | 5.30 to 6.30

Next item in the queue.
Per the records, this compound ( O=C(O)CC[C@H]1CN(S(=O)(=O)c2cc(C(F)(F)F)cnc2OCCO)c2cc(C=C3CCOCC3)ccc2O1 [Example 95O] ) has pEC50 equal to 5.30 to 6.30

###

assaySystem: Gal4-RORγ-LBD (Homo sapiens)
Construct: expressed in transfected cells
protocolDetails: Gal4-RORγ Luciferase Reporter Assay in HEK-293T Cells
Type: cell-based
testConditions: HEK-293 cells, luciferase reporter, with ursolic acid
measuredAttribute: EC50

Some compounds with recorded EC50:
compound | result
C/C(=C\c1ccc2c(c1)N(S(=O)(=O)c1cc(Cl)cnc1OCCO)C[C@H](CCC(=O)O)O2)c1c(F)cccc1Cl | < 0.5 µM
COC(=O)CC[C@H]1CN(S(=O)(=O)c2ccc(F)c(OC(F)F)c2)c2cc(/C=C/c3c(F)cccc3Cl)ccc2O1 [Example 89CU] | 0.5 to 5 µM
Cc1cnc(/C=C/c2ccc3c(c2)N(S(=O)(=O)c2cccc(C(F)(F)F)c2)C[C@H](CCC(=O)O)O3)c(F)c1 [Example 89CF] | > 10 µM
CC(F)(F)c1cccc(S(=O)(=O)N2C[C@H](CCC(=O)O)Oc3ccc(/C=C/c4c(Cl)cccc4C(F)(F)F)cc32)c1 | < 0.5 µM
O=C(O)CC[C@H]1CN(S(=O)(=O)c2cccc(OC(F)F)c2)c2cc(/C=C/c3ccccn3)ccc2O1 [Example 89C] | 5 to 10 µM

Provide EC50 values for the following items, in order.
1. CCOc1ncc(C(F)(F)F)cc1S(=O)(=O)N1C[C@H](CCC(=O)OC)Oc2ccc(/C=C/c3c(OC)cccc3C(F)(F)F)cc21 [Example 89EU]
2. O=C(O)C1Cc2ccc(/C=C/c3c(Cl)cccc3C(F)(F)F)cc2N(S(=O)(=O)c2cccc(C(F)(F)F)c2)C1 (centres unmarked) [Example 15D]
3. Cn1nccc1/C=C/c1ccc2c(c1)N(S(=O)(=O)c1cccc(C(F)(F)F)c1)C[C@H](CCC(=O)O)O2 [Example 89CI]
4. COC(=O)CC[C@H]1CN(S(=O)(=O)c2ccc(F)c(C3CC3)c2)c2cc(/C=C(\C)c3c(F)cccc3Cl)ccc2O1 [Example 86D]
5. CCOc1nn(CC)cc1S(=O)(=O)N1C[C@H](CCC(=O)OC)Oc2ccc(/C=C/c3nccs3)cc21 [Example 89R]
6. O=C(O)CC[C@H]1CN(S(=O)(=O)c2cccc(C(F)(F)F)c2)c2cc(/C=C3\CCCOC3)ccc2O1 [Example 95I]

# output
1: 0.5 to 5 µM; 2: 0.5 to 5 µM; 3: > 10 µM; 4: < 0.5 µM; 5: > 10 µM; 6: 0.5 to 5 µM

###

assaySystem: RORγ-LBD (Homo sapiens, UniProt P51449)
Construct: made in house; host or cells: SF9 cells (baculovirus); used as diluted lysate
protocolDetails: RORγ-Ligand Binding Domain (LBD) TR-FRET Assay
Type: biochemical
testConditions: RORγ-LBD TR-FRET
pEC50: −log10 of the molar value.
Answer each item with its documented pEC50.

molecule | pEC50
CCOc1nn(CC)cc1S(=O)(=O)N1C[C@H](CCC(=O)OC)Oc2ccc(/C=C/c3c(Cl)cccc3C(F)F)cc21 [Example 89EI] | > 6.30
CCOc1nn(CC)cc1S(=O)(=O)N1C[C@H](CCC(=O)OC)Oc2ccc(/C=C/c3c(C)cccc3F)cc21 [Example 89AH] | > 6.30

Now turn to the next molecule.
Lab book: pEC50 of CCOc1ncc(C(F)(F)F)cc1S(=O)(=O)N1C[C@H](CCC(=O)OC)Oc2ccc(/C=C/c3c(Cl)cccc3C(F)(F)F)cc21 [Example 89DN] noted as > 6.30

###

Can you tell me pEC50 for the items I'm about to list?
assaySystem: Gal4-RORγ-LBD (Homo sapiens)
Construct: expressed in transfected cells
Sequence (P51449 269-508 limits assumed): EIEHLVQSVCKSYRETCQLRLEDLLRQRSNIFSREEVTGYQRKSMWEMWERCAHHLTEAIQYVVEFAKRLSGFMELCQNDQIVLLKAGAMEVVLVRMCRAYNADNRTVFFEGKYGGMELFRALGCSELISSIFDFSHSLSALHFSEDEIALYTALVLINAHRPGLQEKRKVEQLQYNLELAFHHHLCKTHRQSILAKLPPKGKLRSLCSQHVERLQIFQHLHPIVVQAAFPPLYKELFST
protocolDetails: Gal4-RORγ Luciferase Reporter Assay in HEK-293T Cells
Assay type: cell-based
testConditions: HEK-293 cells, luciferase reporter, in presence of ursolic acid
pEC50: −log10 of the molar value.

molecule | assaySystem | pEC50
C/C(=C\c1ccc2c(c1)N(S(=O)(=O)c1cccc(C(F)(F)F)c1)C[C@H](CCC(=O)N1CC(C)(C(=O)O)C1)O2)c1c(F)cccc1Cl [Example 129I] | Gal4-RORγ-LBD (Homo sapiens) | > 6.30
C/C(=C\c1ccc2c(c1)N(S(=O)(=O)c1cccc(C(F)(F)F)c1)C[C@H](CCC(=O)N1CCC[C@@H]1C(=O)O)O2)c1c(F)cccc1Cl [Example 129H] | Gal4-RORγ-LBD (Homo sapiens) | > 6.30

Continue with the molecule presented below.
Gal4-RORγ-LBD (Homo sapiens) assay, molecule COc1cc(S(=O)(=O)N2C[C@H](CNC(C)=O)Oc3c(F)cc(/C=C(\C)c4c(F)cccc4Cl)cc32)ccc1F [Example 108] , recorded pEC50 = > 6.30

###

assaySystem: Gal4-RORγ-LBD (Homo sapiens, UniProt P51449)
Construct: expressed in transfected cells
protocolDetails: Gal4-RORγ Luciferase Reporter Assay in HEK-293T Cells
Type: cell-based
testConditions: HEK-293 cells, luciferase reporter, with ursolic acid
measuredAttribute: EC50

Some compounds with known EC50 results, for comparison:
compound | EC50
C/C(=C\c1ccc2c(c1)N(S(=O)(=O)c1cccc(OC(F)F)c1)C[C@H](CCC(=O)O)O2)c1c(F)cccc1Cl [Example 86O] | 0.5 to 5 µM
CCOc1nn(CC)cc1S(=O)(=O)N1C[C@H](CCC(=O)OC)Oc2ccc(/C=C/c3cccc(Cl)n3)cc21 [Example 89AB] | > 10 µM
C[C@@H]1C/C(=C\c2ccc3c(c2)N(S(=O)(=O)c2cc(C(F)(F)F)cnc2OCCO)C[C@H](CCC(=O)O)O3)C[C@H](C)C1 [Example 95AA] | 0.5 to 5 µM
CC1CCCC/C1=C\c1ccc2c(c1)N(S(=O)(=O)c1cccc(C(F)(F)F)c1)C[C@H](CCC(=O)O)O2 (stereo partly shown) [Example 95Q] | < 0.5 µM
C[C@H]1CN(S(=O)(=O)c2cc(C(F)(F)F)cnc2OCCO)c2cc(/C=C/c3c(Cl)cccc3C(F)(F)F)ccc2O1 [Example 89EX] | 0.5 to 5 µM
O=C(O)CC[C@H]1CN(S(=O)(=O)c2cc(C(F)(F)F)cnc2OCCO)c2cc(C=C3CCC(F)(F)CC3)ccc2O1 [Example 95M] | 0.5 to 5 µM
C/C(=C\c1ccc2c(c1)N(S(=O)(=O)c1cccc(C(C)C)c1)C[C@H](CCC(=O)O)O2)c1c(F)cccc1Cl [Example 86Q] | < 0.5 µM
COC(=O)CC[C@H]1CN(S(=O)(=O)c2cc(C(F)(F)F)cnc2OCCO)c2cc(C=C(C)C)ccc2O1 [Example 95AD] | 0.5 to 5 µM
C/C(=C\c1ccc2c(c1)N(S(=O)(=O)c1cccc(C(F)(F)F)c1)C[C@H](CCC(=O)O)O2)c1c(C)noc1C [Example 86AC] | > 10 µM
CCn1cc(S(=O)(=O)N2C[C@H](CCC(=O)O)Oc3ccc(/C=C/c4c(Cl)cccc4C(F)(F)F)cc32)c(OCCO)n1 [Example 89EA] | < 0.5 µM

Give me EC50 for each of these compounds, listed below.
1. CCOc1nn(CC)cc1S(=O)(=O)N1C[C@H](CCC(=O)O)Oc2ccc(/C=C/c3ccccn3)cc21 [Example 89E]
2. CCOc1ncc(Cl)cc1S(=O)(=O)N1C[C@H](CCC(=O)OC)Oc2ccc(/C=C/c3c(Cl)cccc3C(F)(F)F)cc21 [Example 89CY]
3. C/C(=C\c1ccc2c(c1)N(S(=O)(=O)c1cn(CC(F)F)nc1OCCO)C[C@H](CCC(=O)O)O2)c1c(F)cccc1Cl [Example 86AZ]

# output
1. > 10 µM
2. 0.5 to 5 µM
3. 0.5 to 5 µM

Origin of measurements: patent US9896441B2
